Assay: Three-period crossover relative bioavailability study of methotrexate injectable solutions (Vibex device SC vs needle and syringe SC and IM)
Format: in vivo, human
Conditions: human, plasma, sc, 25 mg, 25 mg single dose, subcutaneous with Vibex device
Experimental: This was a randomized, open-label, 3-way crossover study involving 36 subjects. […] One of six treatment sequences was possible as determined by the randomization schedule. […] Immediately following collection of each sample, each tube was gently inverted and placed in ice. […] The storage tubes were placed in a freezer at […] or below until they analyzed. […] Pharmacokinetic parameters were calculated from the individual concentrations of MTX using noncompartmental methods. […]
Quantity: AUC(0-inf)

Request: Consider the compound shown here: CN(Cc1cnc2nc(N)nc(N)c2n1)c1ccc(C(=O)N[C@@H](CCC(=O)O)C(=O)O)cc1 [methotrexate] What is its recorded AUC(0-inf)?
Response: ~2840 ng·h/mL

###

experiment: Three-period crossover relative bioavailability study of methotrexate injectable solutions (Vibex device SC vs needle and syringe SC and IM); assay type: in vivo, human; conditions: human, plasma, sc, 25 mg, 25 mg single dose, subcutaneous with Vibex device
Quantity: Cmax

Request: What value of measured Cmax is listed for CN(Cc1cnc2nc(N)nc(N)c2n1)c1ccc(C(=O)N[C@@H](CCC(=O)O)C(=O)O)cc1 [methotrexate] ?
Response: ~491 ng/mL

###

assay: Three-period crossover relative bioavailability study of methotrexate injectable solutions (Vibex device SC vs needle and syringe SC and IM); format: in vivo, human; details: human, plasma, sc, 10 mg, 10 mg single dose, subcutaneous with Vibex device, subjects with rheumatoid arthritis
Quantity: Cmax

Request: # input compound: CN(Cc1cnc2nc(N)nc(N)c2n1)c1ccc(C(=O)N[C@@H](CCC(=O)O)C(=O)O)cc1 [methotrexate] ; wanted: its Cmax
Response: ~213 ng/mL

###

assay: Three-period crossover relative bioavailability study of methotrexate injectable solutions (Vibex device SC vs needle and syringe SC and IM); type: in vivo, human; conditions: human, plasma, sc, 20 mg, 20 mg single dose, subcutaneous with Vibex device
Quantity: half-life

Request: May I ask what half-life has been recorded for CN(Cc1cnc2nc(N)nc(N)c2n1)c1ccc(C(=O)N[C@@H](CCC(=O)O)C(=O)O)cc1 [methotrexate] ?
Response: ~3.58 h

###

test: Three-period crossover relative bioavailability study of methotrexate injectable solutions (Vibex device SC vs needle and syringe SC and IM); assay type: in vivo, human; settings: human, plasma, sc, 25 mg, 25 mg single dose, subcutaneous with Vibex device, plasma; read-out: AUC(0-24)
Quantity: AUC(0-t)

Request: Can you look up the measured AUC(0-t) of CN(Cc1cnc2nc(N)nc(N)c2n1)c1ccc(C(=O)N[C@@H](CCC(=O)O)C(=O)O)cc1 [methotrexate] for me?
Response: ~2800 ng·h/mL

###

experiment: Three-period crossover relative bioavailability study of methotrexate injectable solutions (Vibex device SC vs needle and syringe SC and IM); assay type: in vivo, human; settings: human, plasma, sc, 25 mg, 25 mg single dose, subcutaneous with Vibex device
Quantity: Tmax

Request: // lookup Tmax for CN(Cc1cnc2nc(N)nc(N)c2n1)c1ccc(C(=O)N[C@@H](CCC(=O)O)C(=O)O)cc1 [methotrexate]
Response: ~1.23 h

###

assay: Three-period crossover relative bioavailability study of methotrexate injectable solutions (Vibex device SC vs needle and syringe SC and IM); assay type: in vivo, human; settings: human, plasma, sc, 20 mg, 20 mg single dose, subcutaneous with Vibex device, plasma; read-out: AUC(0-t)
Quantity: AUC(0-t)

Request: Find the recorded AUC(0-t) belonging to CN(Cc1cnc2nc(N)nc(N)c2n1)c1ccc(C(=O)N[C@@H](CCC(=O)O)C(=O)O)cc1 [methotrexate] and report it.
Response: ~2190 ng·h/mL

Recorded values, source patent US20130058930A1.
